Test system: giant foxtail
assayNotes: Test B pre/postemergence giant foxtail
Type: in vivo, Setaria faberii
assayContext: Preemergence, Rate 250 g/ha; scale of 0 to 10 where 0 is no effect and 10 is complete control
The label is YES for Plant response rating, Giant foxtail below 4 and NO for Plant response rating, Giant foxtail equal to or exceeding 4.

sampleSmiles	className
CCN(C(=O)n1oc(=O)n(-c2ccccc2OC)c1=O)C1CCCCC1	YES
CC(C)N(C(=O)n1oc(=O)n(Cc2cccs2)c1=O)c1ccc(F)cc1F	NO
Cc1cccc(C(C)C)c1-n1c(=O)on(C(=O)N(c2ccc(Cl)cc2)C(C)C)c1=O	YES
COc1ccccc1-n1c(=O)on(C(=O)N(c2ccc(F)cc2F)C(C)C)c1=O	NO
Cc1ccc(N(C(=O)n2oc(=O)n(-c3ccccc3C)c2=O)C(C)C)cc1	NO
CCN(CC)C(=O)n1oc(=O)n(-c2cc(Cl)cc(Cl)c2)c1=O	YES
CCCn1c(=O)on(C(=O)N(c2ccccc2)C(C)C)c1=O	NO

====

Test system: sugar beet
assayNotes: Test B pre/postemergence sugar beet
Type: in vivo, Beta vulgaris
assayContext: Preemergence, Rate 250 g/ha; scale 0 to 10, 0 is no effect, 10 is complete control
assayReadout: Sugarbeets plant response rating

compound	assayReadout	endpointResult
CC(C)N(C(=O)n1oc(=O)n(C(C)C(=O)N(C)C)c1=O)c1ccc(F)cc1 (stereo not shown)	Sugarbeets plant response rating	3
CC(C)N(C(=O)n1oc(=O)n(Cc2ccco2)c1=O)c1ccc(Cl)cc1	Sugarbeets plant response rating	0
CC(C)N(C(=O)n1oc(=O)n(-c2cnn(C)c2)c1=O)c1ccccc1	Sugarbeets plant response rating	5
CC(C)N(C(=O)n1oc(=O)n(-c2ccc(OC(F)(F)F)cc2)c1=O)c1ccc(F)cc1	Sugarbeets plant response rating	3
CC(C)N(C(=O)n1oc(=O)n([C@@H](C)c2ccccc2)c1=O)c1ccc(Cl)cc1	Sugarbeets plant response rating	6
CC(C)N(C(=O)n1oc(=O)n(CC(=O)N(C)C)c1=O)c1ccc(F)cc1F	Sugarbeets plant response rating	4
CC(C)N(C(=O)n1oc(=O)n(CCS(C)(=O)=O)c1=O)c1ccc(F)cc1	Sugarbeets plant response rating	2

====

Test system: corn
assayNotes: Test B pre/postemergence corn
Format: in vivo, Zea mays
assayContext: Postemergence, Rate 250 g/ha; scale of 0 to 10, 0 is no effect, 10 is complete control

compound	Corn plant response rating
COC(=O)C(C)n1c(=O)on(C(=O)N(c2ccc(Cl)cc2)C(C)C)c1=O (stereo not drawn) [Compound 623]	0
CCCCn1c(=O)on(C(=O)N(c2ccc(F)cc2F)C(C)C)c1=O [Compound 635]	0
CC(C)N(C(=O)n1oc(=O)n(CCF)c1=O)c1ccc(F)cc1F [Compound 670]	5
COCCn1c(=O)on(C(=O)N(c2ccccc2)C(C)C)c1=O [Compound 631]	6
C#CC(C=C(C)C)n1c(=O)on(C(=O)N(c2ccccc2)C(C)C)c1=O (stereo not drawn) [Compound 652]	0
C=C(Cn1c(=O)on(C(=O)N(c2ccccc2)C(C)C)c1=O)c1ccc(F)cc1 [Compound 606]	0

====

Test system: crabgrass
assayNotes: Test B pre/postemergence crabgrass
Type: in vivo, Digitaria sanguinalis
assayContext: Preemergence, Rate 250 g/ha; scale 0 to 10, 0 is no effect, 10 is complete control

sampleSmiles	Crabgrass plant response rating
CC(C)N(C(=O)n1oc(=O)n([C@@H](C)c2ccccc2)c1=O)c1ccc(F)cc1	10
CC(C)N(C(=O)n1oc(=O)n(N(C)C)c1=O)c1ccc(F)cc1	10
CC(C)N(C(=O)n1oc(=O)n(-c2ccc(OC(F)(F)F)cc2)c1=O)c1ccc(F)cc1	6
CC(C)N(C(=O)n1oc(=O)n(Cc2ccco2)c1=O)c1ccc(Cl)cc1	3

====

Test system: surinam grass
assayNotes: Test B pre/postemergence surinam grass
Type: in vivo, Brachiaria decumbens
assayContext: Postemergence, Rate 500 g/ha; scale of 0 to 10 where 0 is no effect and 10 is complete control
Here, each record is paired with measured Plant response rating, B. signalgrass data.

compound	assayedSystem	Plant response rating, B. signalgrass
CC(C)N(C(=O)n1oc(=O)n(CC(=O)C(F)(F)F)c1=O)c1ccc(F)cc1F	surinam grass	0
CC(C)N(C(=O)n1oc(=O)n(CCC(F)(F)F)c1=O)c1ccccc1	surinam grass	9
COCCn1c(=O)on(C(=O)N(c2ccccc2)C(C)C)c1=O	surinam grass	8
CCC(C)n1c(=O)on(C(=O)N(c2ccccc2)C(C)C)c1=O (centres unmarked)	surinam grass	9
CC(C)N(C(=O)n1oc(=O)n(CC(=O)N(C)C)c1=O)c1ccc(F)cc1	surinam grass	7

====

Tested on: rape
assayNotes: Test B pre/postemergence rape
Format: in vivo, Brassica napus
assayContext: Preemergence, Rate 250 g/ha; scale 0 to 10, 0 is no effect, 10 is complete control
Here, each record is paired with measured Rape plant response rating data.

compound	Rape plant response rating
Cc1nsc(C)c1-n1c(=O)on(C(=O)N(c2ccc(Cl)cc2)C(C)C)c1=O	0
CC(C)N(C(=O)n1oc(=O)n(C(C)C(=O)N(C)C)c1=O)c1ccc(F)cc1F (centres unmarked)	0
CC1CCCCC1n1c(=O)on(C(=O)N(c2ccccc2)C(C)C)c1=O (centres unmarked)	4
CC(C)N(Cc1ccccc1)C(=O)n1oc(=O)n(C(C)C)c1=O	4
CC(C)N(C(=O)n1oc(=O)n(Cc2ccco2)c1=O)c1ccc(Cl)cc1	0
C=CCn1c(=O)on(C(=O)N(c2ccc(F)cc2)C2CC2)c1=O	0
CCOC(=O)C=C(Cn1c(=O)on(C(=O)N(c2ccc(F)cc2)C(C)C)c1=O)OCC	0
CC(C)N(C(=O)n1oc(=O)n(C[Si](C)(C)c2ccccc2)c1=O)c1ccc(Cl)cc1	0
C=CC(CC)n1c(=O)on(C(=O)N(c2ccccc2)C(C)C)c1=O (centres unmarked)	8
CC(C)N(C(=O)n1oc(=O)n(CC=Cc2ccccc2)c1=O)c1ccc(F)cc1	0
CC(C)N(C(=O)n1oc(=O)n([C@@H](C)c2ccccc2)c1=O)c1ccc(Cl)cc1	0

====

Here, each record is paired with measured Barnyardgrass plant response rating data.
Tested on: bamyardgrass
assayNotes: Test B flood test barnyardgrass
Format: in vivo, Echinochloa crus-galli
assayContext: Rate 125 g/ha; Postemergence section (flood test species); scale 0 to 10, 0 no effect, 10 complete control

sampleSmiles	Barnyardgrass plant response rating
CC(C)N(C(=O)n1oc(=O)n(Cc2cccs2)c1=O)c1ccc(F)cc1F	0
CC(C)N(C(=O)n1oc(=O)n(Cc2ccccc2)c1=O)c1ccc(F)cc1	0
CC(C)N(C(=O)n1oc(=O)n(-c2cnn(C)c2Cl)c1=O)c1ccc(F)cc1	0

====

Test system: wheat
assayNotes: Test B pre/postemergence wheat
Format: in vivo, Triticum aestivum
assayContext: Preemergence, Rate 62 g/ha; scale 0 to 10 (0 no effect, 10 complete control)
Here, each record is paired with measured Wheat plant response rating data.

compound	Wheat plant response rating
CC(C)N(C(=O)n1oc(=O)n(C)c1=O)c1ccc(F)cc1 [Compound 138]	3
COc1ccccc1Cn1c(=O)on(C(=O)N(c2ccccc2)C(C)C)c1=O [Compound 104]	0
COCCn1c(=O)on(C(=O)N(c2ccccc2)C(C)C)c1=O [Compound 631]	0
CC(C)N(C(=O)n1oc(=O)n(C(C)C(=O)c2ccccc2)c1=O)c1ccccc1 (stereo not shown) [Compound 570]	0
CC(C)N(C(=O)n1oc(=O)n(CCC(F)(F)F)c1=O)c1ccccc1 [Compound 584]	0
CC(C)N(C(=O)n1oc(=O)n(CCC2OCCO2)c1=O)c1ccccc1 [Compound 560]	3
CC(C)N(C(=O)n1oc(=O)n(-c2cnn(C)c2)c1=O)c1ccccc1 [Compound 123]	0

====

System: rape
assayNotes: Test B pre/postemergence rape
Assay type: in vivo, Brassica napus
assayContext: Preemergence, Rate 62 g/ha; scale 0 to 10 (0 no effect, 10 complete control)
Protocol: […] At the same time, these crop and weed species were also treated with postemergence applications of test chemicals formulated in the same manner. […] Treated plants and controls were maintained in a greenhouse for twelve to sixteen days, after which all species were compared to controls and visually evaluated. […]

compound	Rape plant response rating
COC(C)n1c(=O)on(C(=O)N(c2ccc(Cl)cc2)C(C)C)c1=O (stereo not drawn) [Compound 592]	0
Cc1noc(C)c1Cn1c(=O)on(C(=O)N(c2ccccc2)C(C)C)c1=O [Compound 569]	0
CC(C)N(C(=O)n1oc(=O)n(C)c1=O)c1ccc(F)cc1 [Compound 138]	7
COCCn1c(=O)on(C(=O)N(c2ccccc2)C(C)C)c1=O [Compound 631]	0
CCCn1c(=O)on(C(=O)N(c2ccccc2)C(C)C)c1=O [Compound 92]	4
C=C(Cn1c(=O)on(C(=O)N(c2ccccc2)C(C)C)c1=O)c1ccc(F)cc1 [Compound 606]	0
CC(C)N(C(=O)n1oc(=O)n(CC(=O)N(C)C)c1=O)c1ccc(F)cc1 [Compound 586]	0
CCN(CC)C(=O)n1oc(=O)n(Cc2ccccc2)c1=O [Compound 152]	0
Cc1cc(C)c(-n2c(=O)on(C(=O)N(c3ccc(Cl)cc3)C(C)C)c2=O)c(C)c1 [Compound 61]	0
CC(C)N(C(=O)n1oc(=O)n(CCC(F)(F)F)c1=O)c1ccccc1 [Compound 584]	3
CC(C)N(C(=O)n1oc(=O)n(C(C)C(=O)c2ccccc2)c1=O)c1ccccc1 (stereo not drawn) [Compound 570]	0
CC(C)N(C(=O)n1oc(=O)n(CC2=NOCCC2)c1=O)c1ccc(F)cc1F [Compound 602]	0
